System: Pseudomonas aeruginosa
METHOD_NOTES: microbe, parasite or virus in culture
Description: In vitro minimum inhibitory concentration against Pseudomonas aeruginosa (PU21).
Binarize MIC at 0.06 µg/mL; below is rule met, at or above is rule not met.

Before answering, review these 3 worked examples.
CC(C)(O/N=C(\C(=O)N[C@@H]1C(=O)N2C(C(=O)O)=C(CNC(=O)c3cc(O)c(O)c(Cl)c3)CSC12)c1csc(N)n1)C(=O)O (stereo partly specified)
rule met
CC(C)(O/N=C(\C(=O)N[C@@H]1C(=O)N2C(C(=O)O)=C(CNC(=O)c3cc(O)c4cc(O)c(O)cc4n3)CSC12)c1csc(N)n1)C(=O)O (stereo partly specified)
rule not met
CC(C)(O/N=C(\C(=O)N[C@@H]1C(=O)N2C(C(=O)O)=C(CCNC(=O)CNC(=O)c3cc(O)c(O)c(Br)c3)CSC12)c1csc(N)n1)C(=O)O (stereo partly specified)
rule met

Input: Is 0.06 µg/mL strictly greater than the compound's reported MIC? compound: CCO/N=C(\C(=O)N[C@@H]1C(=O)N2C(C(=O)O)=C(CNC(=O)c3ccc(O)c(O)c3)CSC12)c1csc(N)n1 (stereo partly specified)
Output: rule not met
